These entries and their values trace back to paper PMC7111624.

Tested on: human astrocytes (HA)
Test: Growth inhibition of normal human astrocytes
Assay type: cell-based
Details: Astrocyte, read-out: IC50, human astrocytes (HA)

COMPOUND STRING: COc1cccc2c1C(=O)c1c(O)c3c(c(O)c1C2=O)C[C@@](O)(C(=O)CO)C[C@@H]3O[C@H]1C[C@H](N)[C@H](O)[C@H](C)O1
IC50 (µM): 8.7
